Target: recombinant human norepinephrine transporter (Homo sapiens, UniProt P23975)
Construct: expressed in transfected cells; host or cells: HEK293 or MDCK
Sequence (P23975 whole entry): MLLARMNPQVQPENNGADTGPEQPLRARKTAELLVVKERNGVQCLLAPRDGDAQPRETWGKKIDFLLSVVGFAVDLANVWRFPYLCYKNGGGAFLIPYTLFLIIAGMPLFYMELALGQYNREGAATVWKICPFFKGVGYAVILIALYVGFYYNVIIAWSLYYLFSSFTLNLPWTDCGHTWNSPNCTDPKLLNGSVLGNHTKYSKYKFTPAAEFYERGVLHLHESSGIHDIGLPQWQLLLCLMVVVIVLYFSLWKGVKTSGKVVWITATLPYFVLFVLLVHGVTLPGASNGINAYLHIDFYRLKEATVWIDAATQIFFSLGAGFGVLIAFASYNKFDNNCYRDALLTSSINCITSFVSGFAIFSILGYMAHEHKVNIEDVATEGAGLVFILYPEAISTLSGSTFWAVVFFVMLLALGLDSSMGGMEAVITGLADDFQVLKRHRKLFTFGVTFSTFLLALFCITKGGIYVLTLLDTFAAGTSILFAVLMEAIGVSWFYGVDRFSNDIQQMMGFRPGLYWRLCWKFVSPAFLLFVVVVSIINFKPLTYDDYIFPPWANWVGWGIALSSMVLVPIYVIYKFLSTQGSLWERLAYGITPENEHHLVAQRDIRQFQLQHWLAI
Test: Norepinephrine functional uptake assay for human reuptake transporter
Format: cell-based
Conditions: [3H]norepinephrine uptake, HEK293 or MDCK cells expressing human norepinephrine transporter; read-out: Human IC50 (nM) NET
This listing pairs molecules with measured log10(IC50).
Annotation: log10 of IC50, nM basis.

molecule	log10(IC50)
CNC[C@H]1Cc2ccccc2[C@H](c2ccc(Cl)c(Cl)c2)C1 [Compound 15a]	1.86
CN[C@H]1Cc2ccc(OC)cc2[C@@H](c2ccc(Cl)c(Cl)c2)C1 (single isomer, unassigned) [Compound 32a.2]	2.67
CN[C@H]1CCc2ccccc2[C@H]1c1ccc(Cl)c(Cl)c1 (stereo in doubt) [Compound 36d]	3.21
COc1ccc2c(c1)C[C@H](N(C)C)C[C@@H]2c1ccc(Cl)c(Cl)c1 (single isomer, unassigned) [Compound 33c.1]	2.97
COc1ccc2c(c1)C[C@H](N(C)C)C[C@@H]2c1ccc(Cl)c(Cl)c1 (single isomer, unassigned) [Compound 33c.2]	2.84

Note to self: log10(IC50) recorded for CC([C@@H]1Cc2ccccc2[C@H](c2ccc(Cl)c(Cl)c2)C1)N(C)C (single isomer, unassigned) [Compound 53] was 2.60
